Reported pKi values follow for various binders
study-system: T1, pKal catalytic domain Mutant 2 (human, UniProt P03952 391-638, limits assumed)
T1 construct: domain: catalytic domain; Expressed in Pichia pastoris, purified by IMAC; not shown: His tag fusion
T1 sequence (P03952 other isoform, or with tags, fused parts or gaps mutant limits assumed): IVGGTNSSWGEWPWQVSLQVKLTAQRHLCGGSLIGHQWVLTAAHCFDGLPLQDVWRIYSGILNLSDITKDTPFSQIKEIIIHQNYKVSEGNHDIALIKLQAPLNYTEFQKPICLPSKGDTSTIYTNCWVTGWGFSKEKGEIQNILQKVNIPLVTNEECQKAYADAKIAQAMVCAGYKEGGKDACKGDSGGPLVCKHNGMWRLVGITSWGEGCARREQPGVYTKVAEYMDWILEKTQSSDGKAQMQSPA
procedure-details: Ki,app: enzyme inhibition, fluorescent substrate, 2 h pre-incubation at 30 C, tight-binding fit
Note on units: pKi is unitless, being -log10 of a concentration expressed in mol/L.

These recorded examples may help you get a feel for the data.
X115-B07 (antibody, V domains shown, only variable domains given; also called 559A-X115-B07; 559A-X0115-B07) VH: EVQLLESGGGLVQPGGSLRLSCAASGFTFSHYLMTWVRQAPGKGLEWVSYISPSGGHTIYADSVKGRFTISRDNSKNTLYLQMNSLRAEDTAVYYCAMVGQGIRGRSRTSYFAQWGQGTLVTVSS VL: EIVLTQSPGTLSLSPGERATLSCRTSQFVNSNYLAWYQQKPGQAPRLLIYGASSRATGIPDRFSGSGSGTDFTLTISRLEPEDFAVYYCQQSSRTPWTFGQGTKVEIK	7.33
X115-G04 (antibody, V domains shown, only variable domains given; also called 559A-X115-G04; 559A-X0115-G04) VH: EVQLLESGGGLVQPGGSLRLSCAASGFTFSHYIMMWVRQAPGKGLEWVSGIYSSGGITVYADSVKGRFTISRDNSKNTLYLQMNSLRAEDTAVYYCAYRRTGVPRRDEFDIWGQGTMVTVSS VL: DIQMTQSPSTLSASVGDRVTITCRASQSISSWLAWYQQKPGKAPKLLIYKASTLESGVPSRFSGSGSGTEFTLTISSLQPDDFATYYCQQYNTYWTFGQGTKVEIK	8.66
X115-F02 (Fab, V domains shown, also called 559A-X115-F02; 559A-X0115-F02) VH: EVQLLESGGGLVQPGGSLRLSCAASGFTFSHYIMMWVRQAPGKGLEWVSGIYSSGGITVYADSVKGRFTISRDNSKNTLYLQMNSLRAEDTAVYYCAYRRIGVPRRDEFDIWGQGTMVTVSS VL: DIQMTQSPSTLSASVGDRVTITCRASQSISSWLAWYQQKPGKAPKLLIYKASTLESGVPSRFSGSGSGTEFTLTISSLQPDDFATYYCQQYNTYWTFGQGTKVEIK	8.23
M29-D09 (Fab, V domains shown, also called 559A-M29-D09 (sFab); 559A-M0029-D09) VH: EVQLLESGGGLVQPGGSLRLSCAASGFTFSWYTMVWVRQAPGKGLEWVSYIYPSGGATFYADSVKGRFTISRDNSKNTLYLQMNSLRAEDTAVYYCAMGSYDYIWGFYSDHWGQGTLVTVSS VL: QSALTQPPTVSVSPGQTARITCSGNKLGDKYVAWYQQKPGQSPMLVIYQDTKRPSRVSERFSGSNSANTATLSISGTQALDEADYYCQAWDSSIVIFGGGTRLTVL	9.47

Okay, now this binder:
# get_value(readout='pKi', item= M145-D11 (Fab, V domains shown, also called 559A-M145-D11 (sFab); 559A-M0145-D11) VH: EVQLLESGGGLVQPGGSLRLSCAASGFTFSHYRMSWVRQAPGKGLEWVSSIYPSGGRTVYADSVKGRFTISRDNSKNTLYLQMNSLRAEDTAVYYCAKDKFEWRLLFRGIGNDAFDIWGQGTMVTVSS VL: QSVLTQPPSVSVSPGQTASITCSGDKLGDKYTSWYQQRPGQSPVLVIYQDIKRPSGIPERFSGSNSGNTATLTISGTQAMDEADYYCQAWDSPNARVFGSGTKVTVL ) 10.00
